This collection of values is drawn from PubChem BioAssay (NCI).

assay.text: NCI Yeast Anticancer Drug Screen. Data for the mec2-1 strain (AID 157)
run.conditions: S. cerevisiae mec2-1 strain, at 50.0 µM, hits give high values
Compounds without any hit were thinned out: in the full panel of roughly 79,000, 15% have a hit. The source made the active and inactive calls. No stated cut-off is given here; in the data, active means growth inhibition above about 70%; inactive means the rest.
parameter: growth inhibition

These solved cases illustrate the format of a correct answer.
1) O=C(C1C(c2ccccc2)N1C1CCCCC1)C1C(c2ccccc2)N1C1CCCCC1 (configuration not stated) :: 17.9% (inactive)
2) Cn1c(=O)n(C2(C)C[Se]C2)c2ccccc21 :: -15.7% (inactive)
3) CC(O)CCC(=O)c1ccoc1 (configuration not stated) :: 10.7% (inactive)
4) CCCC(=O)O.[Ni] :: -4.05% (inactive)
5) O=[N+]([O-])O.[In] :: 44.2% (inactive)

Just so you know, measured growth inhibition for O=C(COc1ccc(Cl)cc1C(=O)O)Nc1cccc(NC(=O)Nc2cccc(S(=O)(=O)F)c2)c1 came out at -13.3% (inactive)

Just so you know, measured growth inhibition for CC(=O)O came out at -13% (inactive)

###

assay.text: NCI Yeast Anticancer Drug Screen. Data for the mec2-1 strain (AID 157)
run.conditions: S. cerevisiae mec2-1 strain, at 50.0 µM (retest, dose inferred, filed as 5.0), hits give high values
About 79,000 compounds went through this panel and 15% of them were active in at least one assay; those are over-represented in the sample as a whole.
parameter: growth inhibition (%)
Unit % implied. Number only.

1. CCCCCCCC[As](C)(=O)O :: -47
2. O=C(OCC(CCl)OC(=O)C(Cl)(Cl)Cl)C(Cl)(Cl)Cl (centres undefined) :: 16
3. C1=C[N-]c2c3c(ccc2=C1)=CC=C[N-]3.C1=C[N-]c2c3c(ccc2=C1)=CC=C[N-]3.F[P-](F)(F)(F)(F)F.[Cu+2] :: 99

Just so you know, measured growth inhibition for CC(Br)C(=O)C(CCN(C)C)(c1ccccc1)c1ccc(Br)s1 (centres undefined) came out at -6

Just so you know, measured growth inhibition for COc1ccc([As+](c2ccccc2)(c2ccccc2)c2ccccc2)cc1 came out at 99

Just so you know, measured growth inhibition for [O-][n+]1ccccc1S came out at 100

Just so you know, measured growth inhibition for [C-]#[O+].[C-]#[O+].[C-]#[O+].[C-]#[O+].[C-]#[O+].[Mo+2].[Mo+4].[c-]1[c-][c-][cH-][c-]1.[c-]1[c-][c-][cH-][c-]1.c1ccc([PH+](CC[PH+](c2ccccc2)c2ccccc2)c2ccccc2)cc1 came out at 99

Just so you know, measured growth inhibition for C[C@]12Cc3cn4ncnc4nc3CC1CC[C@@H]1[C@@H]2CC[C@]2(C)C(O)CC[C@@H]12 (some centres undefined) came out at 99

Just so you know, measured growth inhibition for CCCCCCCC[N+]12CN3CN(CN(C3)C1)C2 came out at -33

###

assay.text: NCI Yeast Anticancer Drug Screen. Data for the bub3 strain (AID 167)
run.conditions: S. cerevisiae bub3 mutant strain, at 50.0 µM (retest, dose inferred, filed as 5.0)
About 79,000 compounds went through this panel and 15% of them were active in at least one assay; those are over-represented in the sample as a whole. Calls of active or inactive are those of the source. Rule as the data show it: active = growth inhibition above about 70%; inactive = the rest.
Outcome (select one): 1 (active), 0 (inactive)

Examples from the recorded data:
1) COc1ccc(O)c(/C=C/[N+](=O)[O-])c1 :: 1
2) COc1cc(/C=C(/C)[N+](=O)[O-])c([N+](=O)[O-])cc1OC :: 0
3) C1=C[N-]c2c3c(ccc2=C1)=CC=C[N-]3.C1=C[N-]c2c3c(ccc2=C1)=CC=C[N-]3.F[P-](F)(F)(F)(F)F.[Cu+2] :: 1

Q) Recorded test call requested for N#C[S-].[La+3].c1ccc(-c2ccccn2)nc1.c1ccc(-c2ccccn2)nc1.c1ccc(-c2ccccn2)nc1
A) 1

Q) Recorded test call requested for C1CN1[PH+](N1CC1)N1CC1.C1CN1[PH+](N1CC1)N1CC1.[I][Pt][I]
A) 0

Q) Recorded test call requested for CCOc1c(Br)cc(/C=C(\C)[N+](=O)[O-])cc1OC
A) 0

Q) Recorded test call requested for CC[C@@H]1C(=O)OC[C@@H]1Cc1cncn1C
A) 0

Q) Recorded test call requested for CC1(OO)CCC2CC1C2(C)C (stereo not given)
A) 1

###

assay.text: NCI Yeast Anticancer Drug Screen. Data for the cln2 rad14 strain (AID 165);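 further: 0% = growth equal to vehicle treated cultures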
run.conditions: S. cerevisiae cln2 rad14 strain, at 50.0 µM
About 79,000 compounds went through this panel and 15% of them were active in at least one assay; those are over-represented in the sample as a whole. Calls of active or inactive are those of the source. No stated cut-off is given here; in the data, active means growth inhibition above about 70%; inactive means the rest.
Outcome (select one): active, inactive

Examples from the recorded data:
1) O=C([O-])C(F)(F)F.O=[N+]([O-])O.[Co+3].[NH2-].[NH2-].[NH2-].[NH2-].[NH2-] :: inactive
2) O=C(/C=C/c1ccccc1)Nc1ccc(Cl)cc1C(=O)c1ccccc1 :: inactive

Q) Recorded test call requested for [Br][Ni][Br].c1ccc([PH+](CC[PH+](c2ccccc2)c2ccccc2)c2ccccc2)cc1
A) inactive

Q) Recorded test call requested for CCOC(=O)C1=C(C)/C(=C/c2[n-]c(C)c(C(=O)OCC)c2C)N=C1C.CCOC(=O)C1=C(C)/C(=C/c2[n-]c(C)c(C(=O)OCC)c2C)N=C1C.[Zn+2]
A) active

Q) Recorded test call requested for Cc1ccc(-n2cnc3c(N(CCCl)CCCl)ncnc32)cc1
A) inactive

Q) Recorded test call requested for CC([NH-])C[NH-].CC([NH-])C[NH-].[Co].[NH2-].[NH2-] (configuration not stated)
A) inactive

Q) Recorded test call requested for COC(=O)c1cccc2cc3cccc[n+]3cc12
A) inactive

Q) Recorded test call requested for CCOP(=O)(OCC)Oc1cc(C)c(SC)c(C)c1
A) inactive

Q) Recorded test call requested for CC(C)C(Br)C(N)=O (configuration not stated)
A) inactive

Q) Recorded test call requested for c1c[nH]c(Cc2ncc(Cc3cnc[nH]3)[nH]2)n1
A) inactive

###

assay.text: NCI Yeast Anticancer Drug Screen. Data for the sgs1 mgt1 strain (AID 161);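 further: 0% = growth of cultures given vehicle only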
run.conditions: S. cerevisiae sgs1 mgt1 strain, at 5.0 µM (retest, dose inferred, filed as 0.5), hits give high values
Compounds without any hit were thinned out: in the full panel of roughly 79,000, 15% have a hit.
parameter: growth inhibition (%)
Unit % implied. Number only.

These solved cases illustrate the format of a correct answer.
1. C1=CC2CCC[N-]C2N1.C1=CC2CCC[N-]C2N1.[I][Pt+2][I] (stereo unspecified) :: 10
2. CN(C)C(=O)OC1C(=O)N(C)c2ccc(Cl)cc2C2(c3ccccc3)N1C2(Cl)Cl (stereo unspecified) :: -12
3. O=[N+]([O-])c1cc([N+](=O)[O-])c(Cl)s1 :: 99
4. CCOP(=O)(N=Nc1cccnc1)OCC :: -1
5. CN1CCOC12CCC1(C)C(CCC3C4CCC(O)C4(C)CCC31)C2 (stereo unspecified) :: -7

Let us examine a further case.
Just so you know, measured growth inhibition for CC(=O)Oc1ccc(/C=C/[N+](=O)[O-])cc1 came out at 12

###

assay.text: NCI Yeast Anticancer Drug Screen. Data for the mec2-1 strain (AID 157)
run.conditions: S. cerevisiae mec2-1 strain, at 50.0 µM (retest, dose inferred, filed as 5.0)
About 79,000 compounds went through this panel and 15% of them were active in at least one assay; those are over-represented in the sample as a whole. Activity calls are given as the source filed them. Rule as the data show it: active = growth inhibition above about 70%; inactive = the rest.
Outcome (select one): active, inactive

Examples from the recorded data:
1. O=C(CCl)OCc1ccccc1 :: inactive
2. O=C1C(=O)C(Br)(Br)C(Br)=C1Br :: inactive
3. C[C@@H]1C[C@@H]([C@H](O)CC2CC(=O)NC(=O)C2)C(=O)[C@@H](C)C1 :: active

Q) Recorded test call requested for O=C([CH-]C(=O)c1ccccc1)c1ccccc1.O=C([CH-]C(=O)c1ccccc1)c1ccccc1.O=C([CH-]C(=O)c1ccccc1)c1ccccc1.[Cl-].[Hf+4]
A) active

Q) Recorded test call requested for C/C(=C\c1ccc(Cl)c(Cl)c1)[N+](=O)[O-]
A) active

###

assay.text: NCI Yeast Anticancer Drug Screen. Data for the sgs1 mgt1 strain (AID 161);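 further: 0% = growth of cultures given vehicle only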
run.conditions: S. cerevisiae sgs1 mgt1 strain, at 5.0 µM (retest, dose inferred, filed as 0.5)
Compounds without any hit were thinned out: in the full panel of roughly 79,000, 15% have a hit. Calls of active or inactive are those of the source. No stated cut-off is given here; in the data, active means growth inhibition above about 70%; inactive means the rest.
Outcome (select one): T (active), F (inactive)

Examples from the recorded data:
1) O=[N+]([O-])c1ccc(N(CCO)CCO)c2c1no[n+]2[O-] :: F
2) CC(=O)Nc1ccccc1[As](OC(C)=O)c1ccccc1 (stereo not drawn) :: F
3) CN(CCCl)c1ccc(/C=C/C2=[N+](C)c3ccccc3C2(C)C)cc1 :: F
4) N#C[S-].[La+3].c1cnc2c(c1)ccc1cccnc12.c1cnc2c(c1)ccc1cccnc12.c1cnc2c(c1)ccc1cccnc12 :: T
5) c1cc2n[pH]nc2cn1 (stereo not drawn) :: F

Q) Recorded test call requested for O=[N+]([O-])c1ccc(CS(=O)(=O)C(Cl)(Cl)Cl)o1
A) F

Q) Recorded test call requested for [Cl][Pt][Cl].c1ccc([AsH](CC[AsH](c2ccccc2)c2ccccc2)c2ccccc2)cc1
A) T

Q) Recorded test call requested for CC1(C)C2CCC([CH2][Hg][Cl])C1C2 (stereo not drawn)
A) T

Q) Recorded test call requested for CCCCCCCC(=O)[O][Hg][c]1ccccc1
A) T

Q) Recorded test call requested for CC1=CC(=C2C=CC(=[N+](C)C)C=C2)C=C(C)S1
A) F

Q) Recorded test call requested for CC12CCC3C(CCC4Cc5nc6nnnn6cc5CC43C)C1CCC2O (stereo not drawn)
A) F

Q) Recorded test call requested for COC(=O)C1ON(c2ccccc2)C2c3ccccc3-c3ccccc3C12 (stereo not drawn)
A) F

Q) Recorded test call requested for CCO[C@@H]([CH2][Hg][Cl])[C@](C)([CH2][Hg][Cl])OCC
A) T

Q) Recorded test call requested for Cc1cc[n+](C2=C(Nc3c(C)cccc3C)C(=O)c3ccccc3C2=O)cc1
A) F

Q) Recorded test call requested for CC1(C)N=C(N)N=C(N)N1c1ccc(OCCCCNC(=O)Nc2ccc(S(=O)(=O)F)cc2)c(Cl)c1
A) F

Q) Recorded test call requested for OC(CN(CCCl)CCCl)C(O)C(O)C(O)CN(CCCl)CCCl (stereo not drawn)
A) F

Q) Recorded test call requested for COC1CC(C)C(OC)C2=CC(=O)C=C(NC(=O)/C(C)=C/C=C\C(C)C(OC(N)=O)/C(C)=C\C(C)C1OC)C2=O (stereo not drawn)
A) T

Q) Recorded test call requested for N#CC(C#N)=NNc1cccc(Cl)c1Cl
A) F
